- experimental.target: UniProt P30989
- Format: cell-based
- run.conditions: Ca2+ mobilization assay
measurement.kind: NTSR1 activity (in words)

compound: COC(=O)[C@H](CC(C)C)NC(=O)Cn1ccc2cc(-c3cnc4ccccc4c3)ccc21 [Compound 25]
value.measured: loss of activity

compound: CC(C)C[C@@H](CO)NC(=O)Cn1ccc2cc(-c3cnc4ccccc4c3)ccc21 [Compound 26]
value.measured: loss of activity

###

The listing below reports EC50 for compounds tested on NTSR1 (Homo sapiens, UniProt P30989).
Sequence (P30989 whole entry, species assumed): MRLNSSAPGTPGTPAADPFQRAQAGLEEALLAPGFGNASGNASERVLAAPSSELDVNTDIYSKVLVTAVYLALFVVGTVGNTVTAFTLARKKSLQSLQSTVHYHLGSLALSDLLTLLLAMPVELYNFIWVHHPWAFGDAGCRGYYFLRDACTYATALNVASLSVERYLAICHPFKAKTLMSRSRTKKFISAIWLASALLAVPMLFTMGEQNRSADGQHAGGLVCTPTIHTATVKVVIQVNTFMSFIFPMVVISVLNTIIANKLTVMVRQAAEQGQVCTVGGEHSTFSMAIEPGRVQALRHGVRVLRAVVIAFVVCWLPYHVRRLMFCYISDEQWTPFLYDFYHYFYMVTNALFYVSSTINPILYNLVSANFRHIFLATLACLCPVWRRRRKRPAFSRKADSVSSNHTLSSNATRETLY

compound: CC(C)C[C@@H](NC(=O)Cn1ccc2cc(NS(=O)(=O)c3cccc4cccnc34)ccc21)C(=O)O [Compound 1, reference compound]
prefix.operator: >
EC50 / µM: 100
--
compound: CC(C)C[C@H](NC(=O)Cn1ccc2cc(-c3cccc4ccccc34)ccc21)C(=O)O
prefix.operator: =
EC50 / µM: 3
--
compound: O=C(Cn1ccc2cc(-c3cnc4ccccc4c3)ccc21)N[C@@H](Cc1ccccc1)C(=O)O
prefix.operator: =
EC50 / µM: 4
